TARGET_OR_TEST_SYSTEM: Adenosine receptor A1 (Rattus norvegicus)
Sequence (P25099 whole entry): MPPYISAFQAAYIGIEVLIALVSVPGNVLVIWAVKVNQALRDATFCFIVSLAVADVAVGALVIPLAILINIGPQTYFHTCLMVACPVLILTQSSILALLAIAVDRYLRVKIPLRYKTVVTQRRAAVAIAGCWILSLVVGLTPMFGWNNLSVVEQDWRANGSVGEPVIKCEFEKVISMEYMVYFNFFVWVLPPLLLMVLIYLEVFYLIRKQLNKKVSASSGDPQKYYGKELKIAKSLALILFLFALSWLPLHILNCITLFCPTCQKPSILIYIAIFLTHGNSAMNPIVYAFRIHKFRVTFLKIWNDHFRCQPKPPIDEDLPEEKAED
PROTOCOL_SUMMARY: Stimulation of [35S]GTP-gamma-S, binding to rat brain membranes by adenosine A1 receptor activation
Criterion: EC50 strictly under 500 nM. Met: Fulfilled. Not met: Not fulfilled.

OC[C@H]1O[C@@H](n2cnc3c(NC4CC4)nc(Cl)nc32)[C@H](O)[C@@H]1O :: Fulfilled

EC50 under 500 nM? Item: OC[C@H]1O[C@@H](n2cnc3c(NC4CC4)ncnc32)[C@H](O)[C@@H]1O Not fulfilled

EC50 under 500 nM? Item: OC[C@H]1O[C@@H](n2cnc3c(NC4CCCCCC4)ncnc32)[C@H](O)[C@@H]1O Fulfilled

EC50 under 500 nM? Item: OC[C@H]1O[C@@H](n2cnc3c(NC4CCCC4)cc(Cl)nc32)[C@H](O)[C@@H]1O Fulfilled

EC50 under 500 nM? Item: OC[C@H]1O[C@@H](n2cnc3c(NC4CCCC4)ccnc32)[C@H](O)[C@@H]1O Fulfilled

EC50 under 500 nM? Item: OC[C@H]1O[C@@H](n2cnc3c(NC4CCCC4)nc(Cl)nc32)C[C@@H]1O Not fulfilled

EC50 under 500 nM? Item: OC[C@H]1O[C@@H](n2cnc3c(NC4CC4)cc(Cl)nc32)[C@H](O)[C@@H]1O Not fulfilled
